Ref: the nanobody polyreactivity screen of Harvey et al. (2022)

Assay: yeast display, Sf9 membrane polyspecificity reagent, FACS + sequencing; frameworks hold sequencing errors
PARAMETER_MEASURED: polyreactivity (PSR sort gate)

# example entries with known answers
# SEQUENCE_STRING, polyreactivity (PSR sort gate)
rows = [
    ("QVQLVESGGGLVQAGGSLRLSCAASGLTFSTYAMGWYRQAPGKERELVAVIRRTGSTYYADSVKGRFTISRDNAKNTVYLQMNSLKPEDTAVYYCATARRHVSGYDYWGQGTQVTVSS", "high polyreactivity"),
    ("QVQLEESGGGLVQAGGSIRLSCAASGRTIVYNAMGWYRQAPGNERELVDAIDGGGDRTYYADSVKGRFTISRDNAKITVYLQMNRLKPEDTAVYYCARDPGDTYYYSYPEGDYWGQGTQVSVSS", "low polyreactivity"),
    ("QVQLVESGGGLVQAGGSLRLSCAASGSTITYYTMGWYRQAPGKERELVAAISGSGGRTYYADSVKGRFTISRDNEKNTVYLQMNSLKPEDTAVYYCAAVYQLSRYDYWGQGTQVTVSS", "high polyreactivity"),
    ("QVQLVESGGGLVQAGGSLRLSCAASGSTFNTNAMAWYRHAPGKERELVAAISWSSTRTYYADSVKGRFTISRDNAKNTVYLQMNSLKPEDTAVYYCAAATYQSRYFQRFDYWGQGTQVTVSS", "high polyreactivity"),
    ("QVQLVESGGGLVQAGGSLRLSCAASGRIFVHYVMGWYRQAPGKERELVAAISRSGGRTYYADSVKGRFTISRDNAKNTVYLQMNSLKPEDTAVYYCATDASTYKYDYWGQGTQVTVSS", "high polyreactivity"),
]

polyreactivity (PSR sort gate) reading for "QVQLVESGGGLVQAGGSLRLSCAASGSIFSVYAMGWYRQAPGKERELVASITSGGRTKYADSVKGRFTISRDNAKNTVYLQMNSLKQEDTAVYYCAKDGGGLLRWYTDEYDYWGQGTQVTVSS" : low polyreactivity

Note to self: polyreactivity (PSR sort gate) recorded for "QVQLVESGGGLVQAGGSLRLSCAASGSINYYAMGWYRQAPGKERELVAAITGSGGSTYYADSVKGRFTISRDNAKNTVYLQMNSLITEDTSVYYCAARYGYIYGPYYYWGQGTQVTVST" was high polyreactivity

Value of measured polyreactivity (PSR sort gate) for the entry "QVQLVESGGGLVQAGGSLRLSCAASGRIFWYYAMGWYRQAPGKERELVAAITRGGITTYADSVKGRYTISRDNAKNTVYLQMNSLKPEDTAVYYCNAVPWYGRMDYWGQGTQVTVSS" : low polyreactivity
